Assay: Concentration of inogatran in plasma on day 6
Assay type: in vivo
Conditions: Sprague-Dawley, rat, iv, rats, constant i.v. infusion 5 μmol/kg/h from Alzet pumps, day 6 after implantation, approximately
Description: Group 4—12 rats—received bleomycin induction as above, plus a constant i.v. infusion of inogatran (5 μmol/kg/h) loaded in Alzet® 2ML2 pumps at a concentration of 200 μmol/mL (88 mg/mL) in 0.9% NaCl (only 8 animals were ultimately used, the other 4 were used for different purposes). […]

COMPOUND: N=C(N)NCCCNC(=O)[C@@H]1CCCCN1C(=O)[C@@H](CC1CCCCC1)NCC(=O)O [inogatran, HOOC—CH2-(R)Cha-Pic-Nag-H]
concentration at 6 day: 2 to 7 µM

Recorded values, source patent US20040157772A1.
